measurement-notes: yeast display, Sf9 membrane polyspecificity reagent, FACS + sequencing; frameworks hold sequencing errors
readout-kind: polyreactivity (PSR sort gate)

QVQLVESRGGLVQAGGSLRLSCAASGFIFTRNAMGWYRQAHGKVRELVAAISYSGGSTYYADSVKGRFTISRDNAKNTVYLQMNSLKPEDTAVYYCNVSPTTSGDGGGYDSWGQGTLVTVSS	low polyreactivity
QVQLVESGGGLVQAGGRLRLSSAASGSTFPYNAMGWYRQAPGKERELVADITSGSSTYYADSGKGRFTISRDNAKNTVYLQMNSLKPEDTAVYYCAATYFVWLNAGGRGYWGQGTQVTVSS	low polyreactivity

====

measurement-notes: yeast display, Sf9 membrane polyspecificity reagent, FACS + sequencing; frameworks hold sequencing errors
readout-kind: polyreactivity (PSR sort gate)

QVQLVESGGGLVQAGGSLRLSCAASGIIFPVYAMGWYRQAPGKERELVATIDSGGGTYYADSVKGRFTISRDNAKNTVYLQMNSLKPEDTAVYYCAADLWVGLVSLWDGYVEYDYWGQGTQVTVSS	low polyreactivity
QVQLVESGGGLVQAGGSLRLICGASGSTFQVNAMGWYRQGPGKERELVASISGGSSTNYADSVKGRFTISRDNAKNTVYLQMNSLKPEDTAVYYCAAYYLSGLRVAYDYWGQGTQVTVSS	low polyreactivity
QVQLVESGGGLVQAGGSLRLSCAASGSTFAVNAMGWYRQAPGKERELVAAISGSGGRTYYADSVKGRFTISRDNAKNTVYLQMNSLKPEDTAVYYCATELRASYRSSGAYHYDYWGQGTQVTVSS	low polyreactivity

====

measurement-notes: yeast display, Sf9 membrane polyspecificity reagent, FACS + sequencing; frameworks hold sequencing errors
readout-kind: polyreactivity (PSR sort gate)

Record excerpt, results attached:
QVQLVESGGGLVQAGGSLRLSCAASGIIFAANAMGWYRQAPGKELELVAAISKNGGITYYADSVKGRFTISRDNAKNTVYLQMNSLIPEDPAVYYCAARWRQTRRYYYWGQGSQVTVSS	high polyreactivity
QVQLVESGGGLVQAGGSLRLSCAASGRIYYAYTMGWYIQAPGKERELVAAISGSGSTYYADSVKGRFSISRDNAKNTVYLQMNSLKPEDTAVYYCAADVTGGRKYDYWGQGTQVTVSS	low polyreactivity
QVQLVESGGGLVQAGGSLRLSCAASGRTFTSYAMGWYRQAPGKERELVAAISSSGSSTYYADSVKGRFTISRDNAKNTVYLQMNSLKPEDTAVYYCAVGGSFRYRVQYDYWGQGTQVTVSS	high polyreactivity
QVQLVDSGGGLVQAGGSLRLSCDASGITFYDYAMGLYRQAPGKEMEFVASITSSGGYTYYADSVKGRFTISRDNAKNTVYLQMNILKPEDTSVYYCNVRYKRNRWQYDYWGQGTQVTVSS	high polyreactivity
QVQLVESGGGLVQAGGSLRLSCAASGSTFRLNAMGWYRQAPGKERELVAAITSGGSTTYADSVKGRFTISRDNAKNTVYLQMNSLKPEDTAVYYCAAANWGTPPYDYWGQGTQVTVSS	low polyreactivity
QVPLVESGGGLVHAGGSLRLSCAASGIILHDNTMGWYRQAPGKERELVAAITSDGSTNYADSVKGRFTISSDNAKNTVYLQMNSLKPEDTAVYYCNTDDGPYTEFDYWRQGTQVTVSS	low polyreactivity
QVQLVESGGGLVQAGGSLRLSCAASGRTFTVYAMGWYRQAPGKEREFVATISRSGGSTYYADSVKGRFTISRDNAKNTVYLQMNSLKPEDTAVYYCAARRSGRKYDYWGQGTQVTVSS	high polyreactivity
QVQRVESGGGLVQAGGSLRLSCAASGFIFPWYAMGWYRQAPGKESELVAAISRGGRTNYADSVKGRFTISRDNAKNTVYLQMNSLKPEDTAVYYCAKKYYLSGSRADDSGGQGTQVTVSS	high polyreactivity

Asked: Param item = QVQLVESGGGLVQAGGSLRLSCAGSGRTFGRYAMGGYRQAPGKERELVAAIRSGGSTYYADSVKGRFTISRDNAKNTVYFQMNSLKPEDTAVYYCAADSTSLYNYWGQGTQVTVLS ; retrieve measured polyreactivity (PSR sort gate).
Given back: low polyreactivity

Asked: And then QVQLVESGGGLVQAGGSLRLSCAASGRTFASYAMGWYRQAPGKERELVAVISRGGSNTNYADSVTGRFTISRDNAKNTVYLQMNSLKPEDTAVYYCADLAFKRYNPGGYDYWGQGTQVTVSS , what is it?
Given back: high polyreactivity

Asked: // query: QVQLVESGGGLVQAGGSLRLSCADSGRIFHYNAMGWYRQAPRKERELVAAISTGGSTNYADSVKGRFTISRDNAKNTVYLQMNSLNPEDTAVYYCAADHPVTYPTSKFDYCGQGTQVTVSS
Given back: low polyreactivity
